Reference source for all entries: patent US5087627A

biological target: 5-HT2 receptor (Oryctolagus cuniculus); construct: The isolated arteries were helically cut into strips; from tissue; host or cells: thoracic aorta of Japanese white rabbit (helical strips); assay: antagonistic test against 5-HT2 using vessel (thoracic aorta) of rabbit, 5-HT-induced contraction; parameters: species or system tissue, rabbit (Japanese white)
Sequence (G1SYA7 1-469): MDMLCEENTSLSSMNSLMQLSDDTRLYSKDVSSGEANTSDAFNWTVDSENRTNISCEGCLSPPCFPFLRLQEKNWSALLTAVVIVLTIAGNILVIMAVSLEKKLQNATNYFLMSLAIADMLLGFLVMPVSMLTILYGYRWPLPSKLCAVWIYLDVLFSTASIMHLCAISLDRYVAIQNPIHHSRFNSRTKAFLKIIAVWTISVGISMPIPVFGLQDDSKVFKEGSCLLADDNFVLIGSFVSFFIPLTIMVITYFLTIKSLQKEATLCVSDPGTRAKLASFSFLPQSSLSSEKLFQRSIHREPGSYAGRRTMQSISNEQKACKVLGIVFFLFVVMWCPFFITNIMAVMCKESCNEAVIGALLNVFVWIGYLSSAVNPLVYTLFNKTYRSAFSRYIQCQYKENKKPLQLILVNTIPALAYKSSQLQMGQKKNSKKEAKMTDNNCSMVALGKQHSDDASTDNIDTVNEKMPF
pIC50: −log10 of the molar value. Counter-ions that a name gives are not always drawn.
quantity name: pIC50

>>> reading("COc1ccc(CCN2CCN(C(Cc3ccccc3)c3ccncc3)CC2)cc1OC (racemic) [compound 8, dioxalate]")
5.15
>>> reading("c1ccc(CC(c2ccccc2)N2CCN(CCOc3ccc4c(c3)OCO4)CC2)cc1 (racemic) [compound No. 7, dihydrochloride]")
5.57
>>> reading("c1ccc(CC(c2cccnc2)N2CCN(CCOc3ccc4c(c3)OCO4)CC2)cc1 (racemic) [compound 9, dioxalate]")
5.32
